Hey, just so you know, these numbers are from patent US8461328B2.

# Assay Target: JAK2 (Homo sapiens, UniProt O60674)
# Construct: made in house; host or cells: SF9 insect cells (baculovirus)
# Sequence (O60674 812-1132): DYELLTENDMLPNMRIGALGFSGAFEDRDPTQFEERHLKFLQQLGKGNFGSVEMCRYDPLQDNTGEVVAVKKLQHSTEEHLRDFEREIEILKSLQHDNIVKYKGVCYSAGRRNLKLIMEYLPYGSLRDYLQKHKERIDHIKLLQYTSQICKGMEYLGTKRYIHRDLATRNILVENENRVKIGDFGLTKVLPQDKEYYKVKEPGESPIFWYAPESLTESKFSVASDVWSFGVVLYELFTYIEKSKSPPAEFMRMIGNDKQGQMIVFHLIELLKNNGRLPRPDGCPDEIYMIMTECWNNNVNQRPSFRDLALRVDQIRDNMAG
# Method Summary: JAK2 inhibition (Table 4)
# Assay type: biochemical
# Conditions Used: read-out: JAK2 Ki
Where a name gives a salt, the structure may show the parent alone.
Hi all, reminder that labels come from Ki, split as low bin (below 20 nM), mid bin (20 nM to below 200 nM), high bin (200 nM or more)

Input line: Band for the recorded Ki of OCc1nc2cnc3[nH]ccc3c2n1C1CCCOC1 (single isomer, unassigned) [Example 463] ?
Output line: mid bin

Input line: Category of O=C(Cc1nc2cnc3[nH]ccc3c2n1C1CCCOC1)N1CCC(F)(F)CC1 (racemic) :
Output line: high bin

Input line: For "O[C@H]1CC[C@H](n2cnc3cnc4[nH]ccc4c32)C1" , which Ki bin applies?
Output line: mid bin

Input line: # bin label for "CC(=O)N1CCC(n2c(C(F)(F)CN)nc3cnc4[nH]ccc4c32)CC1"
Output line: high bin

Input line: Consider "N#Cc1ccc(S(=O)(=O)N2CCC[C@@H](n3cnc4cnc5[nH]ccc5c43)C2)cc1" . To which Ki class does it belong?
Output line: low bin

Input line: Kindly identify the class of Cc1nc2cnc3[nH]ccc3c2n1C1CCC2CC(=O)NC2C1 (single isomer, unassigned) [Example 112] .
Output line: low bin

Input line: Kindly state the category for this compound: "C[C@@H](O)c1nc2cnc3[nH]ccc3c2n1[C@H]1CCN(CCC#N)C1"
Output line: mid bin

Input line: Bin? "CCN1CC[C@@H](n2c(CCNS(C)(=O)=O)nc3cnc4[nH]ccc4c32)[C@@H](F)C1"
Output line: mid bin

Input line: Each compound maps to one class by Ki. Which class for COCC(=O)NC1CCCC(n2cnc3cnc4[nH]ccc4c32)C1 (single isomer, unassigned) [Example 480] ?
Output line: mid bin

Input line: GET /class?item= "O=C(c1nc2cnc3[nH]ccc3c2n1C1CCN(Cc2ccccc2)CC1)N1CCOCC1"
Output line: high bin

Input line: Determine which band this compound sits in: "FC(F)(F)c1nc(CN2CCC(n3cnc4cnc5[nH]ccc5c43)CC2)cs1"
Output line: low bin

Input line: Category lookup for the compound "O=C1CN(Cc2nc3cnc4[nH]ccc4c3n2C2CCOCC2)CCN1"
Output line: high bin

Input line: Class for "CC(C)c1nc2cnc3[nH]ccc3c2n1C1CCNCC1" ?
Output line: high bin

Input line: // return the class label for "O[C@@H](c1nc2cnc3[nH]ccc3c2n1C1CCCCC1)C(F)(F)F"
Output line: mid bin

Input line: Hey, which category is "OCCN1CCC(n2cnc3cnc4[nH]ccc4c32)CC1" in, do you know?
Output line: mid bin

Input line: For this compound, which bin applies? "CN(C)CC(=O)N1CCC(n2cnc3cnc4[nH]ccc4c32)CC1"
Output line: high bin

Input line: GET /class?item= "C[C@@H](O)c1nc2cnc3[nH]ccc3c2n1[C@H]1CC[C@H](NCC(F)(F)F)C1"
Output line: mid bin

Input line: Class label required: OC1CCCC(n2nnc3cnc4[nH]ccc4c32)C1 (single isomer, unassigned) [Example 552]
Output line: low bin

Input line: Category lookup for the compound C[C@@H](O)c1nc2cnc3[nH]ccc3c2n1C1CCNCC1(F)F (single isomer, unassigned)
Output line: low bin

Input line: Place this compound in its band: "OCCc1nc2cnc3[nH]ccc3c2n1C1CCN(Cc2ccccc2)CC1"
Output line: low bin

Input line: Please classify: CC(O)c1nc2cnc3[nH]ccc3c2n1C1CCN(Cc2cccc(C#N)c2)CC1 (racemic)
Output line: low bin

Input line: For this compound, which bin applies? OC(c1nc2cnc3[nH]ccc3c2n1C1CCCCC1)C1CC1 (racemic)
Output line: mid bin

Input line: Bin this entry: "CC(C)(C#N)CN1CCC(n2cnc3cnc4[nH]ccc4c32)CC1"
Output line: low bin

Input line: Band assignment needed for OC1CCCC(n2cnc3cnc4[nH]ccc4c32)C1 (single isomer, unassigned) [Example 561] please.
Output line: low bin

Input line: # bin label for "C[C@@H](O)c1nc2cnc3[nH]ccc3c2n1[C@H]1CC[C@H](NCC(F)(F)F)CC1"
Output line: low bin

Input line: For "O=C(c1ccccc1)N1CCC(n2cnc3cnc4[nH]ccc4c32)CC1" , which Ki bin applies?
Output line: mid bin

Input line: Which class holds "CC1(C(=O)N2CCC[C@@H](n3cnc4cnc5[nH]ccc5c43)C2)CC1" ?
Output line: low bin

Input line: Could you place CN1CCCC(C(=O)N2CCC(n3cnc4cnc5[nH]ccc5c43)CC2)C1 (single isomer, unassigned) [Example 453] in its proper category? Many thanks.
Output line: high bin

Input line: Input "O=C(Cc1nc2cnc3[nH]ccc3c2n1C1CCNCC1)N1CCS(=O)(=O)CC1" ; output its category
Output line: high bin

Input line: Kindly state the category for this compound: "O=C(NCCc1nc2cnc3[nH]ccc3c2n1[C@@H]1CCCOC1)C1CC1"
Output line: high bin

Input line: Class label required: CC(O)c1nc2cnc3[nH]ccc3c2n1C1CC2CCC1O2 (stereo not drawn) [Example 938]
Output line: high bin

Input line: Into which bin does this compound go? CC1CN(Cc2ccccc2)CCC1n1cnc2cnc3[nH]ccc3c21 (racemic) [Example 150, dihydrochloride]
Output line: low bin

Input line: Band assignment needed for CC1CC(n2cnc3cnc4[nH]ccc4c32)CCN1Cc1ccccc1 (racemic) [Example 128] please.
Output line: low bin
